Listing of entries alongside the reported AUC(0-t).
# ASSAY TEXT: Pharmacokinetics experiment in mice (intravenous and oral)
# Type: in vivo
# CONDITION CONTEXT: both sexes, mouse, blood, 2 mg/kg, intravenous injection, single dose
EXPERIMENTAL ENDPOINT: AUC(0-t) (ng·h/mL)

entry_smiles=CCS(=O)(=O)N1CC(CC#N)(n2cc(-c3ncnc4[nH]ncc34)cn2)C1 result_value=1200
entry_smiles=CCS(=O)(=O)N1CCC(N2CC(CC#N)(n3cc(-c4ncnc5[nH]ncc45)cn3)C2)CC1 result_value=883
entry_smiles=N#CCC1(n2cc(-c3ncnc4[nH]ncc34)cn2)CN(C2CCN(C(=O)c3ccnc(C(F)(F)F)c3F)CC2)C1 result_value=900

====

# ASSAYED SYSTEM: UniProt P52333
# Sequence (P52333 whole entry): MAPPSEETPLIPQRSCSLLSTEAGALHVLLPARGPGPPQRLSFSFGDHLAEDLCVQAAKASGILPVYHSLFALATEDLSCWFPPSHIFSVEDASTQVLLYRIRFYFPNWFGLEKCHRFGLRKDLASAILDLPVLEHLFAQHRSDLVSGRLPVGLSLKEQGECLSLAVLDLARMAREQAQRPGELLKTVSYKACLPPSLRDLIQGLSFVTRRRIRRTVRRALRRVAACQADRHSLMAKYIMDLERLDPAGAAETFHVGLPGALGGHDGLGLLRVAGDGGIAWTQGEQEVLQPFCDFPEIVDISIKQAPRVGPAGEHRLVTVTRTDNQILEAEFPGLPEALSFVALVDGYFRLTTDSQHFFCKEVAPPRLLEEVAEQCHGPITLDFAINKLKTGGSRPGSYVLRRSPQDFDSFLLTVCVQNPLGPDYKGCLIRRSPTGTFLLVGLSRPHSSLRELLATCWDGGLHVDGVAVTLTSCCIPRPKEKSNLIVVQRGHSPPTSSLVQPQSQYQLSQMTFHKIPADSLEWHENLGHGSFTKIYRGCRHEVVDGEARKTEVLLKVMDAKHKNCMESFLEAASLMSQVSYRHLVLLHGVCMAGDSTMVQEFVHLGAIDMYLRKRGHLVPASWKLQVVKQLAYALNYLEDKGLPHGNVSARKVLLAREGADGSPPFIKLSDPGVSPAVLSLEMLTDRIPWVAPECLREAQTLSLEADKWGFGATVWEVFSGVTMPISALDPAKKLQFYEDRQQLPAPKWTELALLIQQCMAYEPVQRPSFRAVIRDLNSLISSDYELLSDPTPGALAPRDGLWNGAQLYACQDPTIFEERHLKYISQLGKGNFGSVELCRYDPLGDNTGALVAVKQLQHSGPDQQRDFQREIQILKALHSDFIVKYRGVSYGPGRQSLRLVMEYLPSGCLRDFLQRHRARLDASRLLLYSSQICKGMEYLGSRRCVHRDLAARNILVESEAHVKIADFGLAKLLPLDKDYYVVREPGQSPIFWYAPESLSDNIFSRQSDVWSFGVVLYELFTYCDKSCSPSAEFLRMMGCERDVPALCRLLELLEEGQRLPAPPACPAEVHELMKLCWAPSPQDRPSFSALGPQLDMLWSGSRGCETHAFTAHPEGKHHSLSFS
# ASSAY TEXT: Caliper Mobility Shift Assay, kinase enzyme activity, JAK3
# Assay type: biochemical
# CONDITION CONTEXT: JAK3; read-out: Kinase inhibitory activity (IC50, nM) JAK3
Listing of entries alongside the reported IC50.
EXPERIMENTAL ENDPOINT: IC50

compound="N#CCC1(n2cc(-c3ncnc4[nH]ncc34)cn2)CN(C2CCN(C(=O)c3ccnc(C(F)(F)F)c3F)CC2)C1 [Compound Ii]" assayed_system="UniProt P52333" result_value="3770 nM"
compound="CCS(=O)(=O)N1CCC(N2CC(CC#N)(n3cc(-c4ncnc5[nH]ncc45)cn3)C2)CC1 [Compound Ig]" assayed_system="UniProt P52333" result_value="2060 nM"
compound="CCS(=O)(=O)N1CC(CC#N)(n2cc(-c3ncnc4[nH]ncc34)cn2)C1 [Compound Ip]" assayed_system="UniProt P52333" result_value="423 nM"

====

# ASSAY TEXT: Pharmacokinetics experiment in mice (intravenous and oral)
# Format: in vivo
# CONDITION CONTEXT: both sexes, mouse, blood, 2 mg/kg, intravenous injection, single dose
EXPERIMENTAL ENDPOINT: clearance

compound="N#CCC1(n2cc(-c3ncnc4[nH]ncc34)cn2)CN(C2CCN(C(=O)c3ccnc(C(F)(F)F)c3F)CC2)C1 [Compound Ii]" experimental_endpoint=clearance result_value="37.3 mL/min/kg"
compound="CCS(=O)(=O)N1CCC(N2CC(CC#N)(n3cc(-c4ncnc5[nH]ncc45)cn3)C2)CC1 [Compound Ig]" experimental_endpoint=clearance result_value="37.5 mL/min/kg"
compound="CCS(=O)(=O)N1CC(CC#N)(n2cc(-c3ncnc4[nH]ncc34)cn2)C1 [Compound Ip]" experimental_endpoint=clearance result_value="27.3 mL/min/kg"

====

# ASSAY TEXT: Pharmacokinetics experiment in mice (intravenous and oral)
# Format: in vivo
# CONDITION CONTEXT: both sexes, mouse, blood, 2 mg/kg, intravenous injection, single dose, read-out: Vss
# Procedure: Experimental animals: mice, male and female, weight: 23-25 g; Preparation of the test articles: The target compounds (Ig, Ii, and Ip) were prepared as 0.4 mg/mL (for intravenous administration) and 1.0 mg/mL (for oral administration), for later use. Administration route: oral administration/intravenous injection. Dosing volume and frequency: 5 mL/kg (intravenous injection) or 10 mL/kg (oral administration), single dose. […]
EXPERIMENTAL ENDPOINT: Vd (L/kg)

entry_smiles=CCS(=O)(=O)N1CC(CC#N)(n2cc(-c3ncnc4[nH]ncc34)cn2)C1 experimental_endpoint=Vd units=L/kg result_value=1.74
entry_smiles=N#CCC1(n2cc(-c3ncnc4[nH]ncc34)cn2)CN(C2CCN(C(=O)c3ccnc(C(F)(F)F)c3F)CC2)C1 experimental_endpoint=Vd units=L/kg result_value=1.32
entry_smiles=CCS(=O)(=O)N1CCC(N2CC(CC#N)(n3cc(-c4ncnc5[nH]ncc45)cn3)C2)CC1 experimental_endpoint=Vd units=L/kg result_value=0.997

====

# ASSAY TEXT: Pharmacokinetics experiment in mice (intravenous and oral)
# Format: in vivo
# CONDITION CONTEXT: both sexes, mouse, blood, 2 mg/kg, intravenous injection, single dose, read-out: Terminal t1/2 (converted)
Listing of entries alongside the reported half-life.
EXPERIMENTAL ENDPOINT: half-life (min)

molecule="N#CCC1(n2cc(-c3ncnc4[nH]ncc34)cn2)CN(C2CCN(C(=O)c3ccnc(C(F)(F)F)c3F)CC2)C1 [Compound Ii]" experimental_endpoint=half-life result_value=50
molecule="CCS(=O)(=O)N1CCC(N2CC(CC#N)(n3cc(-c4ncnc5[nH]ncc45)cn3)C2)CC1 [Compound Ig]" experimental_endpoint=half-life result_value=23.4
molecule="CCS(=O)(=O)N1CC(CC#N)(n2cc(-c3ncnc4[nH]ncc34)cn2)C1 [Compound Ip]" experimental_endpoint=half-life result_value=83.4

====

# ASSAY TEXT: Pharmacokinetics experiment in mice (intravenous and oral)
# Assay type: in vivo
# CONDITION CONTEXT: both sexes, mouse, blood, 10 mg/kg, oral administration, single dose
EXPERIMENTAL ENDPOINT: Tmax (min)

compound="CCS(=O)(=O)N1CC(CC#N)(n2cc(-c3ncnc4[nH]ncc34)cn2)C1 [Compound Ip]" units=min result_value=15
compound="CCS(=O)(=O)N1CCC(N2CC(CC#N)(n3cc(-c4ncnc5[nH]ncc45)cn3)C2)CC1 [Compound Ig]" units=min result_value=22.5
compound="N#CCC1(n2cc(-c3ncnc4[nH]ncc34)cn2)CN(C2CCN(C(=O)c3ccnc(C(F)(F)F)c3F)CC2)C1 [Compound Ii]" units=min result_value=60

====

# ASSAY TEXT: Pharmacokinetics experiment in mice (intravenous and oral)
# Assay type: in vivo
# CONDITION CONTEXT: both sexes, mouse, blood, 10 mg/kg, oral administration, single dose, read-out: Terminal t1/2 (converted)
Listing of entries alongside the reported half-life.
EXPERIMENTAL ENDPOINT: half-life (h)

compound="CCS(=O)(=O)N1CC(CC#N)(n2cc(-c3ncnc4[nH]ncc34)cn2)C1 [Compound Ip]" experimental_endpoint=half-life result_value=1.4
compound="CCS(=O)(=O)N1CCC(N2CC(CC#N)(n3cc(-c4ncnc5[nH]ncc45)cn3)C2)CC1 [Compound Ig]" experimental_endpoint=half-life result_value=1.18
compound="N#CCC1(n2cc(-c3ncnc4[nH]ncc34)cn2)CN(C2CCN(C(=O)c3ccnc(C(F)(F)F)c3F)CC2)C1 [Compound Ii]" experimental_endpoint=half-life result_value=0.987

====

# ASSAYED SYSTEM: TYK2 (Homo sapiens)
# Sequence (P29597 whole entry): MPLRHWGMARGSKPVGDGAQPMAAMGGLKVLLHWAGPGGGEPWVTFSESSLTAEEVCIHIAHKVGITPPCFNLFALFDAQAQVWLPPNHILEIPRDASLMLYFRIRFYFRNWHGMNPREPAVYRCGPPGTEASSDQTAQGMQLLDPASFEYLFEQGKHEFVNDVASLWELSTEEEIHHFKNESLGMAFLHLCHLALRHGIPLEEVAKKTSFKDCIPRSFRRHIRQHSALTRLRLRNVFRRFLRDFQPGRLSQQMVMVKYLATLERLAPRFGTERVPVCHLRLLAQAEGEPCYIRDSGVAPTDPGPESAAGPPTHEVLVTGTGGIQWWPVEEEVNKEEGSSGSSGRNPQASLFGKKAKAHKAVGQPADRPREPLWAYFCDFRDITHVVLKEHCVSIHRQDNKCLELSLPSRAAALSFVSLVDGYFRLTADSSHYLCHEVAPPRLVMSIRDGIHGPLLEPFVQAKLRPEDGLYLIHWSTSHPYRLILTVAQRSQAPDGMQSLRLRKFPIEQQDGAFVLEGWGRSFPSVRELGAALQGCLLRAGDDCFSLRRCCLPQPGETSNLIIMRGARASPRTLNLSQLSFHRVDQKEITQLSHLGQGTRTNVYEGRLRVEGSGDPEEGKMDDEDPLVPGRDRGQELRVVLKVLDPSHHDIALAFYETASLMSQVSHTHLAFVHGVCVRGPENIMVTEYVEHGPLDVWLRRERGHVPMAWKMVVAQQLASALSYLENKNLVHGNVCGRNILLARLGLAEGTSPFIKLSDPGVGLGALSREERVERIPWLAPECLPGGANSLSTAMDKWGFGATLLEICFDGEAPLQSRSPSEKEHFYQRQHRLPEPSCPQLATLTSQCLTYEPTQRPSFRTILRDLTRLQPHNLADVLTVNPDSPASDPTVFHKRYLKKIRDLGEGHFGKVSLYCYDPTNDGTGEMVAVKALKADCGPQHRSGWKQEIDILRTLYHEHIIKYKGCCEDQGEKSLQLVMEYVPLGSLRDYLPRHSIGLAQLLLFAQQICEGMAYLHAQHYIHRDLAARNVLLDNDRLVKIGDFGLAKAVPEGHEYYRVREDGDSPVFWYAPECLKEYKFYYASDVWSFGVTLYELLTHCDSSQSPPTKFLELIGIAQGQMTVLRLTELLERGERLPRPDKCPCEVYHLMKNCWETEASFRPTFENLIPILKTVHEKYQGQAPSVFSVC
# ASSAY TEXT: Caliper Mobility Shift Assay, kinase enzyme activity, TYK2
# Format: biochemical
# CONDITION CONTEXT: TYK2; read-out: Kinase inhibitory activity (IC50, nM) TYK2
EXPERIMENTAL ENDPOINT: IC50 (nM)

entry_smiles=N#CCC1(n2cc(-c3ncnc4[nH]ncc34)cn2)CN(C2CCN(C(=O)c3ccnc(C(F)(F)F)c3F)CC2)C1 assayed_system="TYK2 (Homo sapiens)" experimental_endpoint=IC50 units=nM result_value=2660
entry_smiles=CCS(=O)(=O)N1CCC(N2CC(CC#N)(n3cc(-c4ncnc5[nH]ncc45)cn3)C2)CC1 assayed_system="TYK2 (Homo sapiens)" experimental_endpoint=IC50 units=nM result_value=1230
entry_smiles=CCS(=O)(=O)N1CC(CC#N)(n2cc(-c3ncnc4[nH]ncc34)cn2)C1 assayed_system="TYK2 (Homo sapiens)" experimental_endpoint=IC50 units=nM result_value=209

Data origin: patent US12065441B2
